Test system: Male beagle dogs
Assay: canine telemetry protocol, blood pressure reduction efficacy
Type: in vivo
Conditions: pulse pressure, change from baseline; 3 mg/kg, oral gavage; 6-12 h

- compound: "CC(C)(C)N/[N+]([O-])=N/OC1CCN(c2ccc(C#N)cn2)CC1 [Example 22]"
  study target: "Male beagle dogs"
  result units: "mm Hg"
  ΔPP (mm Hg) 6-12 h: "−17"
- compound: "Cc1cccc(N2CC[C@@H](O/N=[N+](\\[O-])NC(C)(C)C)C2=O)c1 [Example 36]"
  study target: "Male beagle dogs"
  result units: "mm Hg"
  ΔPP (mm Hg) 6-12 h: "−7"
- compound: "CC(C)(C)N/[N+]([O-])=N/O[C@@H]1CCN(c2cccc(C#N)c2)C1 [Example 32]"
  study target: "Male beagle dogs"
  result units: "mm Hg"
  ΔPP (mm Hg) 6-12 h: "−12"
- compound: "CC(C)(C)NC(=O)N1CC[C@@H](O/N=[N+](\\[O-])NC(C)(C)C)C1 [Example 9]"
  study target: "Male beagle dogs"
  result units: "mm Hg"
  ΔPP (mm Hg) 6-12 h: "−27"

* * *

Test system: Male beagle dogs
Experiment: canine telemetry protocol, blood pressure reduction efficacy
Format: in vivo
Conditions: pulse pressure, change from baseline; 3 mg/kg, oral gavage; 1-6 h
Each record here notes measured ΔPP (mm Hg) 1-6 h.

- compound: "CC(C)(C)N/[N+]([O-])=N/OC1CCN(c2ccc(C#N)cn2)CC1 [Example 22]"
  ΔPP (mm Hg) 1-6 h: "−15 mm Hg"
- compound: "CC(C)(C)N/[N+]([O-])=N/O[C@@H]1CCN(c2cccc(C#N)c2)C1 [Example 32]"
  ΔPP (mm Hg) 1-6 h: "−7 mm Hg"
- compound: "Cc1cccc(N2CC[C@@H](O/N=[N+](\\[O-])NC(C)(C)C)C2=O)c1 [Example 36]"
  ΔPP (mm Hg) 1-6 h: "−9 mm Hg"
- compound: "CC(C)(C)NC(=O)N1CC[C@@H](O/N=[N+](\\[O-])NC(C)(C)C)C1 [Example 9]"
  ΔPP (mm Hg) 1-6 h: "−23 mm Hg"

* * *

Tested on: Male beagle dogs
Test: canine telemetry protocol, blood pressure reduction efficacy
Format: in vivo
Settings: systolic blood pressure, change from baseline; 3 mg/kg, oral gavage; 6-12 h

- smiles entry: "Cc1cccc(N2CC[C@@H](O/N=[N+](\\[O-])NC(C)(C)C)C2=O)c1"
  ΔSBP (mm Hg) 6-12 h: "−17"
- smiles entry: "CC(C)(C)N/[N+]([O-])=N/OC1CCN(c2ccc(C#N)cn2)CC1"
  ΔSBP (mm Hg) 6-12 h: "−18"
- smiles entry: "CC(C)(C)NC(=O)N1CC[C@@H](O/N=[N+](\\[O-])NC(C)(C)C)C1"
  ΔSBP (mm Hg) 6-12 h: "−25"
- smiles entry: "CC(C)(C)N/[N+]([O-])=N/O[C@@H]1CCN(c2cccc(C#N)c2)C1"
  ΔSBP (mm Hg) 6-12 h: "−17"

Values compiled from patent US8361994B2.
